B1: Storkhead-box protein 2, residues 64 to 141; numbered along this chain, Q9P2F5 (parent)
chain: SPISQSQFIPLGEILCLAISAMNSARKPVTQEALMEHLTTCFPGVPTPSQEILRHTLNTLVRERKIYPTPDGYFIVTP

Variants of: B1
PROCEDURE SUMMARY: abundance fitness (aPCA) (normalised: wild type 0, dead -1); higher = more abundant; growth selection in yeast, the domain comes from the species named
EXPERIMENTAL PARAMETERS: Homo sapiens
OBSERVED PROPERTY: abundance fitness
Answer with the value's number alone.

Below, 3 variants whose answers are already recorded.
L11Q    -0.32
L11K    -0.51
T40I    -0.066

Give its abundance fitness value. Item: `I3G`
-0.046

Give its abundance fitness value. Item: `Q7W`
-0.152

Give its abundance fitness value. Item: `P70R`
0.05

These measurements were taken from the Human Domainome abundance scans (Beltran et al. 2025).
